meta.source: patent US11739098B2

Biological target: human TLR8 (Homo sapiens)
Sequence (Q9NR97 27-1041): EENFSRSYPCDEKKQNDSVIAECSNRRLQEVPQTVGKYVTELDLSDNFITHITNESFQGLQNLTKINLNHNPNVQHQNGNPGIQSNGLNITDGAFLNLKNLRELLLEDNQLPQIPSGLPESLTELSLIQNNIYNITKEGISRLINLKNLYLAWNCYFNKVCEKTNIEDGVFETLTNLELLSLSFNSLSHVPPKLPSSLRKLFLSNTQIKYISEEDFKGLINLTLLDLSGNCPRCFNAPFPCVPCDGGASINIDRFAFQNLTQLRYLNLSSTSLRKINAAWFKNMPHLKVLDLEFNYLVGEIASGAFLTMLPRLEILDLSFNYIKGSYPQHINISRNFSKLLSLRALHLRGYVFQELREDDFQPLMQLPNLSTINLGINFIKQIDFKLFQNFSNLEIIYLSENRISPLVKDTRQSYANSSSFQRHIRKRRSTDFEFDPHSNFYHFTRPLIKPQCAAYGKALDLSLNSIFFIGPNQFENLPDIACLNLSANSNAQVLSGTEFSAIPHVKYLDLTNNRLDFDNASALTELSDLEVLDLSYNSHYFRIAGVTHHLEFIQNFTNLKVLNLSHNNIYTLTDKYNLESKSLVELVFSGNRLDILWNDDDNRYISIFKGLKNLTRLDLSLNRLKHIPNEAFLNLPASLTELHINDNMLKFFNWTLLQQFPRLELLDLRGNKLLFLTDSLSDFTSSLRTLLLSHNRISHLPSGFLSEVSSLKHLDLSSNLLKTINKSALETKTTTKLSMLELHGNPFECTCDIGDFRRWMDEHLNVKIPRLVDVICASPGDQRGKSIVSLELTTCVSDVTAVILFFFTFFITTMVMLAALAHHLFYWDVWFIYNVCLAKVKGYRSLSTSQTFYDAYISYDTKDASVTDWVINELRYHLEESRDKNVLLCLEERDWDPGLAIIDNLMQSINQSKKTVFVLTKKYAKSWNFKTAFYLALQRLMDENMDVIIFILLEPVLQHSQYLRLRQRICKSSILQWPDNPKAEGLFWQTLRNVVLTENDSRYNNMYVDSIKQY
Test: TLR8 inhibition reporter assay (HEK-Blue cells, SEAP reporter, R848 stimulation)
Conditions: HEK-Blue cells overexpressing human TLR8, SEAP reporter, R848 15.9 μM
Where a name gives a salt, the structure may show the parent alone.
RECORDED_METRIC: IC50

Query: Endpoint output: IC50 of Cc1cc(-c2[nH]c3ccc(C4CCNCC4)cc3c2C(C)C)cn2c(C(N)=O)cnc12 . Value?
Response: 100 to 1000 nM

Query: Item: Cc1ccnc2c1c(-c1[nH]c3ccc(C4CCN(CC(=O)N(C)C)CC4)cc3c1C(C)C)cn2C
Response: < 100 nM

Query: Item: CC(CN(C)C)CN1CCC(c2ccc3[nH]c(-c4ccnc5[nH]ncc45)c(C(C)C)c3c2)CC1 (stereo not shown)
Response: < 100 nM

Query: Item: COc1cc(-c2[nH]c3ccc(C4CCN(C(=O)CN(C)C)CC4)cc3c2C(C)C)cc2nc(C)nn12
Response: < 100 nM

Query: Item: Cc1cc(-c2[nH]c3ccc(C4CCN(CC(C)(C)O)CC4)cc3c2C(C)C)cn2nnnc12 [Example 745, TFA]
Response: < 100 nM

Query: Item: COc1cc(-c2[nH]c3ccc(C4CCN(CC(=O)N(C)C)CC4)cc3c2C(C)C)nn2ncnc12
Response: 100 to 1000 nM

Query: Item: Cc1cn2cc(-c3[nH]c4ccc(C5CCN(CC(=O)N(C)C)CC5)cc4c3C(C)C)c(C)cc2n1
Response: 100 to 1000 nM
